- experimentalTarget: F508delCFTR (Homo sapiens, UniProt P13569, DEL508-508)
- Construct: expressed in transfected cells; host or cells: CFBE41o- human lung derived epithelial cells (CFBE41o-F508delCFTR-HRP), doxycycline-inducible
- Sequence (P13569 with tags, fused parts or gaps DEL508-508): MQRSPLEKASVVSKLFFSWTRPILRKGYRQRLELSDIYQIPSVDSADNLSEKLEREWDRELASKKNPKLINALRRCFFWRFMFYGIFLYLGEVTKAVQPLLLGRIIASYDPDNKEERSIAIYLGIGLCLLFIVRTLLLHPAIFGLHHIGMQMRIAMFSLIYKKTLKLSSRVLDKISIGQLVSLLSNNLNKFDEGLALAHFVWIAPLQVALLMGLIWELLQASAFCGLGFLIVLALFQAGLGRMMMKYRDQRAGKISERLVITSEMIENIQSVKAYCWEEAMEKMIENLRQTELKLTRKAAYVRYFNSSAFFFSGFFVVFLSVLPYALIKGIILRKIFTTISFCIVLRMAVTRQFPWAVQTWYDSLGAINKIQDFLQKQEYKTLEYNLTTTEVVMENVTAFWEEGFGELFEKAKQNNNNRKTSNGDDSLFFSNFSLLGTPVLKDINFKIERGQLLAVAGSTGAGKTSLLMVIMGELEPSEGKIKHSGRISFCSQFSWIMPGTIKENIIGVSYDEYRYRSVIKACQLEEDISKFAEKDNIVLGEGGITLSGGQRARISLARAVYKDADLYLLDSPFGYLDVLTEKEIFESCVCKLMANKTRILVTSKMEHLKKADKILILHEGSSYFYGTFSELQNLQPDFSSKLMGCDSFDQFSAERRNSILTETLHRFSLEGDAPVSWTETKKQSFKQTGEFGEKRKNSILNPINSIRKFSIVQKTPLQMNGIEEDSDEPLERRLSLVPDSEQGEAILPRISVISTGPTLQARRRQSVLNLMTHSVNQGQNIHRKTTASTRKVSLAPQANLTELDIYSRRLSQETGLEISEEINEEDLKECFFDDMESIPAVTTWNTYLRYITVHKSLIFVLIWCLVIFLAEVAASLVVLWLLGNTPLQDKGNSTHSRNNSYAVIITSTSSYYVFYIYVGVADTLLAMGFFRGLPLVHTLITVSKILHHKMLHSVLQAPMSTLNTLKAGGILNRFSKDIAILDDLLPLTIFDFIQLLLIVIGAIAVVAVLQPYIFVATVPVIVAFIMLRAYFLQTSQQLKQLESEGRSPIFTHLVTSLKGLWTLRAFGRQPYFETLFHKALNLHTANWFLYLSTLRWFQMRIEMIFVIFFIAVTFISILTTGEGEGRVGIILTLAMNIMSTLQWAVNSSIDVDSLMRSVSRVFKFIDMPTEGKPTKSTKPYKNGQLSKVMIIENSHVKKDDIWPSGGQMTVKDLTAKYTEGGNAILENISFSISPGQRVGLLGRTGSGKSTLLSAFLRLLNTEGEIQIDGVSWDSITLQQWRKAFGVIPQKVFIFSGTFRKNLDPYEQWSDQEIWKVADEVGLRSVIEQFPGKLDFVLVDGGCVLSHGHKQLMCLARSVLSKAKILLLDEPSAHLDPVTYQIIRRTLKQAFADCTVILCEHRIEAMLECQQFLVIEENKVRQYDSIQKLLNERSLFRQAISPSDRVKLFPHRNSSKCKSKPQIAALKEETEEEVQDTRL
- experimentalProtocol: Cell Surface Expression-Horse Radish Peroxidase (CSE-HRP) Assay
- Type: cell-based
- conditionDetails: test compound with co-corrector; maximum at any tested concentration
endpointName: Maximum % activity (with co-corrector)

Worked cases, answers included:
COc1ncc(C2(C(=O)NS(=O)(=O)c3cccc4ccccc34)CC2)c(OC)n1: ++ (≥150 and <350)
O=C(NS(=O)(=O)c1cccc2[nH]ccc12)C1(c2cc(C3CCC3)cnc2OCC2CC2)CC1: +++ (≥350)
COc1cc(C)c(C2(C(=O)NS(=O)(=O)c3cccc4ccccc34)CC2)cn1: +++ (≥350)
Cc1ccc2c(S(=O)(=O)NC(=O)C3(c4cc(C5CC5)cnc4OCC(C)C)CC3)cccc2n1: +++ (≥350)
COc1cnc(OC(C)C)c(C2(C(=O)NS(=O)(=O)c3cccc4nc(C)ccc34)CC2)c1: +++ (≥350)
CCc1ccncc1C1(C(=O)NS(=O)(=O)c2cccc3ncccc23)CC1: + (<150)

Now consider a different compound.
Exam item: Give the reported value of Maximum % activity (with co-corrector) for this record: COCCOc1ncc(C)cc1C1(C(=O)NS(=O)(=O)c2cccc3nc(C)ccc23)CC1
Marked response: +++ (≥350)

====

- experimentalTarget: F508delCFTR (Homo sapiens, UniProt P13569, DEL508-508)
- Construct: expressed in transfected cells; host or cells: CFBE41o- human lung derived epithelial cells (CFBE41o-F508delCFTR-HRP), doxycycline-inducible
- experimentalProtocol: Cell Surface Expression-Horse Radish Peroxidase (CSE-HRP) Assay
- Assay type: cell-based
- conditionDetails: with co-corrector; maximum at any tested concentration
endpointName: Maximum % activity (with co-corrector)

Worked cases, answers included:
Cc1ccccc1S(=O)(=O)NC(=O)C1(c2cccc(Cl)c2)CCCC1 [Example III-83]: ++ (≥150 and <350)
O=C(NS(=O)(=O)C1CC1)C1(c2ccc(Cl)cc2Cl)CC1 [Example III-28]: + (<150)
COCC1(c2ccc(OC)c(C3(C(=O)NS(=O)(=O)c4cccc5nc(C)ccc45)CC3)c2)CC1 [Example I-74]: +++ (≥350)
COc1ccc(OC)c(C2(C(=O)NS(=O)(=O)c3cccc4ncccc34)CC2)c1 [Example I-29]: +++ (≥350)
COc1cccc(C2CCC2)c1C1(C(=O)NS(=O)(=O)c2cccc3ncccc23)CC1 [Example I-51]: +++ (≥350)

Exam item: Write down measured Maximum % activity (with co-corrector) (F508delCFTR (Homo sapiens, UniProt P13569, DEL508-508)) for this molecule. O=C(NS(=O)(=O)c1ccccc1)C1(c2ccccc2Cl)CC1 [Example III-32]
Marked response: ++ (≥150 and <350)

Exam item: Write down measured Maximum % activity (with co-corrector) (F508delCFTR (Homo sapiens, UniProt P13569, DEL508-508)) for this molecule. O=C(NS(=O)(=O)c1ccc(Br)s1)C1(c2ccc(Cl)cc2Cl)CC1 [Example III-63]
Marked response: ++ (≥150 and <350)

====

- experimentalTarget: F508delCFTR (Homo sapiens, UniProt P13569, DEL508-508)
- Construct: expressed in transfected cells; host or cells: CFBE41o- human lung derived epithelial cells (CFBE41o-F508delCFTR-HRP), doxycycline-inducible
- experimentalProtocol: Cell Surface Expression-Horse Radish Peroxidase (CSE-HRP) Assay;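 on EC50 (with co-corrector): co-corrector chromenyl benzoic acid corrector at 2 or 3 µM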
- Type: cell-based
- conditionDetails: test compound with co-corrector; read-out: EC50 (with co-corrector)
endpointName: EC50

Worked cases, answers included:
CCc1cnc(OCCOC)c(C2(C(=O)NS(=O)(=O)c3cccc4ncccc34)CC2)c1 [Example GI-112]: < 3 µM
CC(C)Oc1ncc(N2CCC2)cc1C1(C(=O)NS(=O)(=O)c2cccc3ncccc23)CC1 [Example GI-83]: < 3 µM
O=C(NS(=O)(=O)c1cccc2[nH]ccc12)C1(c2cc(C3CCC3)cnc2N2CCCC2)CC1 [Example GI-30]: < 3 µM
CCc1ccncc1C1(C(=O)NS(=O)(=O)c2cccc3ncccc23)CC1 [GIII-6]: > 10 µM
CC(C)Oc1ncc(C2CCC2)cc1C1(C(=O)NS(=O)(=O)c2cccc3c2CCCN3)CC1 [GII-25]: 3 to 10 µM
Cc1ccc(C2(C(=O)NS(=O)(=O)c3cccc4[nH]ccc34)CC2)c(OC(C)C)n1 [Example GI-82]: < 3 µM

Exam item: Give the reported value of EC50 for this record: CCc1cnc(OC(C)C)c(C2(C(=O)NS(=O)(=O)c3cccc4[nH]ccc34)CC2)c1 [Example GI-41]
Marked response: < 3 µM

Exam item: Give the reported value of EC50 for this record: CC(C)Oc1ncc(C2CC2)cc1C1(C(=O)NS(=O)(=O)c2cccc3[nH]ccc23)CC1 [Example GI-61]
Marked response: < 3 µM

Exam item: Give the reported value of EC50 for this record: Cc1ccc2c(S(=O)(=O)NC(=O)C3(c4cc(C5CCC5)cnc4N4CCCC4)CC3)cccc2n1 [Example GI-29]
Marked response: < 3 µM

Exam item: Give the reported value of EC50 for this record: CC(C)Oc1ncc(N2CCCC2)cc1C1(C(=O)NS(=O)(=O)c2cccc3ncccc23)CC1 [Example GI-62]
Marked response: < 3 µM

Exam item: Give the reported value of EC50 for this record: O=C(NS(=O)(=O)c1cccc2c1CCCN2)C1(c2cc(C3CC3)cnc2N2CCCC2)CC1 [GII-29]
Marked response: 3 to 10 µM

Exam item: Give the reported value of EC50 for this record: Cc1ccc2c(S(=O)(=O)NC(=O)C3(c4cc(C5CC5)cnc4N4CCCC4)CC3)cccc2n1 [Example GI-33]
Marked response: < 3 µM

Exam item: Give the reported value of EC50 for this record: O=C(NS(=O)(=O)c1cccc2ncccc12)C1(c2cc(C3CC3)cnc2N2CCCC2)CC1 [Example GI-32]
Marked response: < 3 µM

Exam item: Give the reported value of EC50 for this record: Cc1ccc2c(S(=O)(=O)NC(=O)C3(c4cc(C5CCC5)cnc4N4CCN(C)CC4)CC3)cccc2n1 [GIII-32]
Marked response: > 10 µM

Exam item: Give the reported value of EC50 for this record: Cc1cnc(OCC2CC2)c(C2(C(=O)NS(=O)(=O)c3cccc4nc(C)ccc34)CC2)c1 [Example GI-101]
Marked response: < 3 µM
